The reported numbers originate from patent US6750244B2.

Test: in vivo
Conditions: Frings, mouse, in vivo, ip

| compound | TD50 (mg/kg) |
| --- | --- |
| NCCC(Oc1ccccc1F)c1cccc(F)c1 (centres unmarked) | 15.3 |
| N=C(N)NCCCC(N)C(=O)NCCCNCCCNCCCCCNC(=O)C(CC(N)=O)NC(=O)Cc1ccc(O)cc1O (centres unmarked) | 16.8 |
| CCNCCC(c1cccc(F)c1)c1cccc(F)c1 | 7.8 |
| C[C@@H](CN)C(c1cccc(F)c1)c1cccc(F)c1 | 27.8 |

* * *

Overview of recorded Monoamine uptake binding assays: serotonin uptake binding assay, percent block for various compounds
Molecular target: serotonin uptake site (Rattus norvegicus)
Construct: from tissue; host or cells: rat forebrain membranes (per the assay title)
Sequence (P31652 whole entry): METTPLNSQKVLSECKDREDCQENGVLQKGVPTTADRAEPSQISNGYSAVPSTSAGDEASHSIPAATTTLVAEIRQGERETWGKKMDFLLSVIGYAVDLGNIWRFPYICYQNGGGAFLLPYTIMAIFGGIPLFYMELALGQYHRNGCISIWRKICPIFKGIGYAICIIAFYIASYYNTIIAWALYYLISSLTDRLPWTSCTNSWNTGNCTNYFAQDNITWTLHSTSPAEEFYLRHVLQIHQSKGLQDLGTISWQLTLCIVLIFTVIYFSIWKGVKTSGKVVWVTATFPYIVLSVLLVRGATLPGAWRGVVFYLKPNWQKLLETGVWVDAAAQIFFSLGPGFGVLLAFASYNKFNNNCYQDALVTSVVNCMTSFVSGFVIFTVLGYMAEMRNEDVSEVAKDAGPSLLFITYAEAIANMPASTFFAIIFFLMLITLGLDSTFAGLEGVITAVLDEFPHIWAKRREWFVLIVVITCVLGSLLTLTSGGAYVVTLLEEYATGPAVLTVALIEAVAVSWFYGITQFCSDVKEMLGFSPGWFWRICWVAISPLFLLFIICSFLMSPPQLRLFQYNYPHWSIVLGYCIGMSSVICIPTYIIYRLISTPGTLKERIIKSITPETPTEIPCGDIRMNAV
Experiment: Serotonin uptake binding assay: [3H]citalopram binding to rat forebrain membranes
Details: at 10 μM
measured endpoint: Monoamine uptake binding assays: serotonin uptake binding assay, percent block

| compound | measured value |
| --- | --- |
| CCNCCC(c1cccc(F)c1)c1cccc(F)c1 | 0.1^h86% at |
| N[C@H]1CCCC1C(c1cccc(F)c1)c1cccc(F)c1 (stereo partly drawn) | 0.1^h85% at |
| C[C@H](CN)C(c1cccc(F)c1)c1cccc(F)c1 | 0.1^h79% at |
| N[C@@H]1CCCC1C(c1cccc(F)c1)c1cccc(F)c1 (stereo partly drawn) | 0.1^h68% at |
| NCCC(c1cccc(F)c1)c1cccc(F)c1 | 0.1^h94% at |
| CC(CN)C(c1cccc(Cl)c1)c1cccc(Cl)c1 (stereo not drawn) | 0.1^h75% at |
| C[C@H](N)CC(c1cccc(F)c1)c1cccc(F)c1 | 0.1^h97% at |
| Cc1ccc(F)cc1C(CCN)c1cc(F)ccc1C | 0.1^h95% at |
| C[C@@H](CN)C(c1cccc(F)c1)c1cccc(F)c1 | 0.1^h89% at |

* * *

Tested on: sound-induced seizures
Assay: Sound-induced seizures in Frings mice (reflex epilepsy)
Format: in vivo
Details: intracerebroventricular (i.c.v.) injection
Overview of recorded IC50, prevention of sound-induced seizures for various compounds
measured endpoint: IC50, prevention of sound-induced seizures

| compound | measured value |
| --- | --- |
| NCCCNCCCNCCCNC(=O)Cc1c[nH]c2ccc(F)cc12 | 4.77 µg |
| NCCCOCCCCOCCCNC(=O)Cc1c[nH]c2ccc(F)cc12 | 12.2 µg |
| N=C(N)NCCCC(N)C(=O)NCCCNCCCNCCCCCNC(=O)C(CC(N)=O)NC(=O)Cc1ccc(O)cc1O (centres unmarked) | 0.63 µg |
| NCCCNCCCCNCCCNCCCNCCCNC(=O)Cc1c[nH]c2ccc(F)cc12 | 4.77 µg |
| NCCCOCCCCOCCCNC(=O)Cc1cccc2ccccc12 | 13.9 µg |

* * *

Molecular target: norepinephrine uptake site (Rattus norvegicus, UniProt Q63380)
Construct: from tissue; host or cells: rat cortical membranes (per the assay title)
Sequence (Q63380 1-617): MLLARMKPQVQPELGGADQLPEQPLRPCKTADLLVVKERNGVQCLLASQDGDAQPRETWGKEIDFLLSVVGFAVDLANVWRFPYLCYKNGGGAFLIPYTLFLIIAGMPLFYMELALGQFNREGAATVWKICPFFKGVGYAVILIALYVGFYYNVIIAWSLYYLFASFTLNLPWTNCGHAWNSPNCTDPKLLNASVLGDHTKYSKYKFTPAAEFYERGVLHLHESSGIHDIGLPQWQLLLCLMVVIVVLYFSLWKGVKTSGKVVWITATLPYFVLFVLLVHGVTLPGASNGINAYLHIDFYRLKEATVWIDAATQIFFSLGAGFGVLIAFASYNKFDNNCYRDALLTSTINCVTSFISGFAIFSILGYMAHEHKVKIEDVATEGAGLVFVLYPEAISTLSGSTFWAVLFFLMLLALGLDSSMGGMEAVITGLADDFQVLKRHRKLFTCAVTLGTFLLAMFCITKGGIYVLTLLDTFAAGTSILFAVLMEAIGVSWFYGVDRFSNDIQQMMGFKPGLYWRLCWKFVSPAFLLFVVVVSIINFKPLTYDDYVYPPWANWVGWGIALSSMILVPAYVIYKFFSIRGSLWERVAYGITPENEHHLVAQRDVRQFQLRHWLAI
Test: Norepinephrine uptake binding assay: [3H]desipramine binding to rat cortical membranes
Conditions: at 10 μM
Overview of recorded Monoamine uptake binding assays: norepinephrine uptake binding assay, percent block for various compounds
measured endpoint: Monoamine uptake binding assays: norepinephrine uptake binding assay, percent block

| compound | study system | measured value |
| --- | --- | --- |
| C[C@H](CN)C(c1cccc(F)c1)c1cccc(F)c1 [Compound 34] | norepinephrine uptake site (Rattus norvegicus, UniProt Q63380) | 0.1^g64% at |
| C[C@@H](CN)C(c1cccc(F)c1)c1cccc(F)c1 [Compound 33] | norepinephrine uptake site (Rattus norvegicus, UniProt Q63380) | 0.1^g54% at |
| CCNCCC(c1cccc(F)c1)c1cccc(F)c1 [Compound 59] | norepinephrine uptake site (Rattus norvegicus, UniProt Q63380) | 0.1^g51% at |
| NCCC(c1cccc(F)c1)c1cccc(F)c1 [Compound 20, 3,3-bis(3-fluorophenyl)-1-propylamine] | norepinephrine uptake site (Rattus norvegicus, UniProt Q63380) | 0.1^g58% at |
| Cc1ccc(F)cc1C(CCN)c1cc(F)ccc1C [Compound 58] | norepinephrine uptake site (Rattus norvegicus, UniProt Q63380) | 0.1^g67% at |
| N[C@H]1CCCC1C(c1cccc(F)c1)c1cccc(F)c1 (stereo partly shown) [Compound 63] | norepinephrine uptake site (Rattus norvegicus, UniProt Q63380) | 0.1^g76% at |
| CC(CN)C(c1cccc(Cl)c1)c1cccc(Cl)c1 (stereo not shown) [Compound 46] | norepinephrine uptake site (Rattus norvegicus, UniProt Q63380) | 0.1^g64% at |
| N[C@@H]1CCCC1C(c1cccc(F)c1)c1cccc(F)c1 (stereo partly shown) [Compound 64] | norepinephrine uptake site (Rattus norvegicus, UniProt Q63380) | 0.1^g65% at |
| C[C@H](N)CC(c1cccc(F)c1)c1cccc(F)c1 [Compound 50] | norepinephrine uptake site (Rattus norvegicus, UniProt Q63380) | 0.1^g78% at |
